Origin of the recorded values: ChEMBL document CHEMBL4602677

# test_protocol: Inhibition of BACE1 in CHO cells stably expressing amyloid precursor protein after 24 hrs by Western blot analysis
# Assay type: cell-based, Cricetulus griseus

- substance_smiles: "COC(C)(C)[C@H]1O[C@@]23O[C@@H]1C[C@@H](C)[C@@H]2[C@@]1(C)CC[C@@]24C[C@@]25CC[C@H](O[C@@H]2OC[C@@H](O)[C@H](O)[C@H]2O)C(C)(C)[C@@H]5CC=C4[C@]1(C)[C@H]3O"
  value_unit: "µM"
  IC50: 8.1
- substance_smiles: "CC(=O)O[C@H]([C@H]1C[C@@H](C)[C@H]2[C@@](O)(O1)[C@H](O)[C@@]1(C)C3=CC[C@H]4C(C)(C)[C@@H](O[C@@H]5OC[C@@H](O)[C@H](O)[C@H]5O)CC[C@@]45C[C@@]35CC[C@]21C)C(C)(C)O"
  value_unit: "µM"
  IC50: 7.1
- substance_smiles: "CC(=O)O[C@@H]1[C@H](O)[C@@H](O)[C@H](O[C@H]2CC[C@]34C[C@]35CC[C@]3(C)[C@H]6[C@H](C)C[C@H]([C@@H](OC(C)=O)C(C)(C)O)O[C@@]6(O)[C@H](O)[C@@]3(C)C5=CC[C@H]4C2(C)C)O[C@@H]1CO"
  value_unit: "µM"
  IC50: 7.8
- substance_smiles: "C[C@@H]1C[C@H]([C@@H](O)C(C)(C)O)O[C@H]2C(=O)[C@@]3(C)C4=C(CC[C@]3(C)[C@@H]12)C[C@]12CC[C@H](O1)C(C)(C)[C@@H]2CC4"
  value_unit: "µM"
  IC50: 6.2
